# target_system: UniProt:P00533
# Sequence (P00533 whole entry): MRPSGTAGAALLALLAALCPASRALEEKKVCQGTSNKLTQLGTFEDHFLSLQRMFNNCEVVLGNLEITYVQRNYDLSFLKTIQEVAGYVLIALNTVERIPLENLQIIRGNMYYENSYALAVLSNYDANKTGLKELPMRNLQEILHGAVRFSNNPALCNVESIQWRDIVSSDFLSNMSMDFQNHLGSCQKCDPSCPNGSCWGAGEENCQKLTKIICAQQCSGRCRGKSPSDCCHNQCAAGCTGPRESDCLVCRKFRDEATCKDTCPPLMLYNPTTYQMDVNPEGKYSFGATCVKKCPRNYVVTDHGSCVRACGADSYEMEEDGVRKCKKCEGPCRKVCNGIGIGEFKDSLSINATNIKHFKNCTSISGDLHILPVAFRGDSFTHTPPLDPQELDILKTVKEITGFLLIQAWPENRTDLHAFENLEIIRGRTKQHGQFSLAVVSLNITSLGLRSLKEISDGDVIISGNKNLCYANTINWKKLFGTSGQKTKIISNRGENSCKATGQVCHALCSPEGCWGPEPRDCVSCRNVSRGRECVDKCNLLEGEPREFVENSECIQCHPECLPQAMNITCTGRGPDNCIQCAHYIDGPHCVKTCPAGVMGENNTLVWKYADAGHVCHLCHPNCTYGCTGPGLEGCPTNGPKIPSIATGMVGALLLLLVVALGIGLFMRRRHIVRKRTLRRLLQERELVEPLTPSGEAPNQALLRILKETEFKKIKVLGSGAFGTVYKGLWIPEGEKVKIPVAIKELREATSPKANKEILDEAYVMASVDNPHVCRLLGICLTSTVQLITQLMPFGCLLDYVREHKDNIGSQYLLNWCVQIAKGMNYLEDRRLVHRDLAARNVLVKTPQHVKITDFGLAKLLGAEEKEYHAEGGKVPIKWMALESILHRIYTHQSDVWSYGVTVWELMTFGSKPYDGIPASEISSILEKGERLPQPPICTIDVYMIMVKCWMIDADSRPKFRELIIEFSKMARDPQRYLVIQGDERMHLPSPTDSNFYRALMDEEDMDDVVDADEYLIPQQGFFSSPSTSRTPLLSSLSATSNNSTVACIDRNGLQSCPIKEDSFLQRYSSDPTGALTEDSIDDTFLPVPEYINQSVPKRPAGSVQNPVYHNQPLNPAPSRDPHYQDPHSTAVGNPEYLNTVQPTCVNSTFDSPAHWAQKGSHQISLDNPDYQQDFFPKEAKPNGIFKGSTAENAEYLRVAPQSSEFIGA
observable: IC50 (µM)

1. O=C(NCc1ccccc1)c1cc2cc(O)c(O)cc2cn1    3.1
2. O=C(Nc1ccccc1)c1cc2cc(O)c(O)cc2cn1    5.6
3. O=C(NCc1ccccc1)c1cc2ccc(O)c(O)c2cn1    1.4

----------
This section lists IC50 readings for Tyrosine-protein kinase Lck (Homo sapiens, UniProt P06239).
observable: IC50 (µM)

1) O=C(NCCc1ccccc1)c1cc2ccc(O)c(O)c2cn1    40
2) NC(=O)c1cc2cc(O)c(O)cc2cn1    1900
3) NC(=O)c1cc2ccc(O)c(O)c2cn1    0.5
